# Study Target: HDM2 (used for surface plasmon resonance and the competitive binding assay) (UniProt Q00987 1-491)
# Sequence (Q00987 whole entry): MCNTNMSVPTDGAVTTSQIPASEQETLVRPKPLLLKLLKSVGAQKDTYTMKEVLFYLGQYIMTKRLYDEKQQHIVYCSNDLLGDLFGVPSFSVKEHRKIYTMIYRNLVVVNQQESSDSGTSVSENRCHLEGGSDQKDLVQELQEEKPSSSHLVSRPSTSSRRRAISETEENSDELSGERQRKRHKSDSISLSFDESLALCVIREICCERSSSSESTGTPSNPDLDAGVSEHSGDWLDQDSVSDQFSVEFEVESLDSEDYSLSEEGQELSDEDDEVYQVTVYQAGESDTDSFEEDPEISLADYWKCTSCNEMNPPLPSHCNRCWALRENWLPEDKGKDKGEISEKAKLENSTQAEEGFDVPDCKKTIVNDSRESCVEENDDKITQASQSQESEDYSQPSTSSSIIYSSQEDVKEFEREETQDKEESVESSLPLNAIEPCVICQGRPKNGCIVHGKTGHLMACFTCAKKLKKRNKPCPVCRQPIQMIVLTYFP
# Assay Text: SPR
Assay Metric: pKd
One number for each entry, as −log10 of the molar value.

Exercise: What does the data say about its pKd? Entry: LWKLLPEDDVLSPLPSQAM (isoaspartate at 29 and 30) [p53 peptide (amino acids 22-40) N29,30IsoD]
Key: 3.16

// provenance: paper PMC3621463
